# tgt: pooled human IgG (human IgG1, 2, 3 and 4)
measurement kind: Enzyme Activity Endpoint Assay (purified): Fab′2 (ng/µL)

>>> number("PRT-381 (protein) MVTSVWTKGVTPPTNFTYGEDVLHAPYVANQGWYDITKTFNGKDDLLCGAATAGNMLHWWFDQNKEQIENYLKKHPEKQKINFNGEQMFDVKEAIDTKDSQLDSKLFEYFKEKAFPYLSTKHLGVFPDHVIDMFINGYRLSLTNHGPTPVKRGSKDPRGGIFDAVFTRGDQSKLLTNRHDFKEKTLKEISDLIKQELTEGKALGISHTYANVRINHVINLWGADFDAEGNLEAIYVTDSDSNPSIGMKKYFVGVNSNGKVAISAKEIEEDNIGAQVLGLFTLSTGQDIWNQTN")
486
>>> number("PRT-647 (protein) MQITSVWTKGVTPLTPEQFRYNNEDVIHAPYLAHQGWYDITKAFDGKDNLLCGAATAGNMLHWWFDQNKTEIEAYLSKHPEKQKIIFNNQELFDLKAAIDTKDSQTNSQLFNYFRDKAFPNLSARQLGVMPDLVLDMFINGYYLNVFKTQSTDVNRPYQDKDKRGGIFDAVFTRGDQTTLLTNRYDLYDKGLNDISTIIKQELTEGRALALSHTYANVSISHVINLWGADFNAEGNLEAIYVTDSDANASIGMKKYFVGINAHGHVAISAKKIEGENIGAQVLGLFTLSSGKDIWQKLSLEHHHHHH")
777
